# Lookup of reported pIC50 keyed by entry
target: Human recombinant CD38 (Homo sapiens, UniProt P28907); test: CD38 hydrolase inhibition assay; details: glycohydrolase activity, 0.2 ng/μL CD38, 100 μM ε-NAD substrate, fluorescence excitation 300 nm / emission 410 nm
Sequence (P28907 whole entry): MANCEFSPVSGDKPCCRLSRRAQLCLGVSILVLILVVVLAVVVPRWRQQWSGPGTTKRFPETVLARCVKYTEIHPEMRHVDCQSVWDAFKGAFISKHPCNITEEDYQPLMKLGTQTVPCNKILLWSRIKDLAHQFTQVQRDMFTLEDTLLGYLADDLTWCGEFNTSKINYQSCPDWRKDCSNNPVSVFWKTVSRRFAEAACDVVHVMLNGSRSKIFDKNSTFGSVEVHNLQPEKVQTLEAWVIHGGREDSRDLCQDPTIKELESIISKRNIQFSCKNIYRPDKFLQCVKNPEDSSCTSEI
pIC50: −log10 of the molar value.

Task: # returns recorded pIC50 (system: Human recombinant CD38 (Homo sapiens, UniProt P28907)) for COCCOc1cc(C(=O)Nc2ccc(F)c(Cl)c2)cc(-n2ccnc2)c1
Output: > 7.00

Task: # returns recorded pIC50 (system: Human recombinant CD38 (Homo sapiens, UniProt P28907)) for COCCOc1cc(C(=O)Nc2ccc3nccnc3c2)cc(-n2ccnc2)c1
Output: > 7.00

Task: # returns recorded pIC50 (system: Human recombinant CD38 (Homo sapiens, UniProt P28907)) for COCCOc1cc(C(=O)Nc2ccc3[nH]cnc3c2)cc(-n2ccnc2)c1
Output: > 7.00

Task: # returns recorded pIC50 (system: Human recombinant CD38 (Homo sapiens, UniProt P28907)) for CN(C)CCOc1cc(C(=O)Nc2ccnc(C(F)(F)F)c2)cc(-n2ccnc2)c1
Output: > 7.00

Task: # returns recorded pIC50 (system: Human recombinant CD38 (Homo sapiens, UniProt P28907)) for COCCOc1cc(C(=O)Nc2ccnc(C(F)(F)F)c2)cc(-c2cncs2)c1
Output: > 7.00

Others:
Task: # returns recorded pIC50 (system: Human recombinant CD38 (Homo sapiens, UniProt P28907)) for COCCOc1cc(C(=O)Nc2ccnc(C(F)(F)F)c2)cc(-n2cncc2CO)c1
Output: 6.00 to 7.00
